Biological target: UniProt:B4URF0
Design: species or system A/Berlin/10/04(H3N2)
measurement.type: pIC50
When answering, recall that pIC50 equals minus log10 of the concentration in mol/L, and write that number alone.

Q: Look up and state reported pIC50 for CCC(CC)O[C@@H]1C=C(C(=O)O)C[C@H](NC(C)=N)[C@H]1NC(C)=O
Ans: 8.89

* * *

Exercise: for every item that follows, state its recorded EC50.
System: Influenza A virus
Test: microbe, parasite or virus in culture
Conditions: A/Jena/5258/2009(H1N1), MDCK, 48 h
Give the value in µM but do not write µM after it.

Q: Assign EC50 to the following record: CCC(CC)O[C@@H]1C=C(C(=O)O)C[C@H](NC(=N)N)[C@H]1NC(C)=O
Ans: 3.12

Q: Give a short answer stating reported EC50 for CCC(CC)O[C@@H]1C=C(C(=O)O)C[C@H](NC(C)=N)[C@H]1NC(C)=O .
Ans: 1.9

Q: For the compound CCC(CC)O[C@@H]1C=C(C(=O)O)C[C@H](N)[C@H]1NC(C)=O [OSELTAMIVIR CARBOXYLATE] , give its reported EC50.
Ans: 5.21

Q: Return value of EC50 for input CC(=O)N[C@H]1[C@H]([C@H](O)[C@H](O)CO)OC(C(=O)O)=C[C@@H]1NC(=N)N [ZANAMIVIR] , no commentary.
Ans: 6.56

* * *

Experiment: Prodrug activation in pig liver mitochondria assessed as formation of oseltamivir carboxylate per mg protein at 500 uM after 30 mins by HPLC analysis
Parameters: species or system Sus scrofa
Conditions: 0.5 h
measurement.type: Drug metabolism (nmol/min/mg)
Record the value in nmol/min/mg, omitting the unit from your answer.

Q: Tell us which Drug metabolism value is on record for CCOC(=O)C1=C[C@@H](OC(CC)CC)[C@H](NC(C)=O)[C@@H](NC(=N)N)C1
Ans: 0.21

Q: Item CCOC(=O)C1=C[C@@H](OC(CC)CC)[C@H](NC(C)=O)[C@@H](N/C(C)=N/O)C1 : provide Drug metabolism
Ans: 0.51

Q: Read off the recorded Drug metabolism for Br.CCOC(=O)C1=C[C@@H](OC(CC)CC)[C@H](NC(C)=O)[C@@H](NC(C)=N)C1
Ans: 0.15

* * *

Test: Prodrug activation in pig liver assessed as carboxylesterase-mediated oseltamivir carboxylate formation per mg protein at 500 uM after 30 mins by HPLC analysis
Format: tissue-based, Sus scrofa
Details: 0.5 h
measurement.type: Drug metabolism (nmol/min/mg)
// note: answer is a bare numeric in nmol/min/mg

Q: Determine from records and report Drug metabolism for CCOC(=O)C1=C[C@@H](OC(CC)CC)[C@H](NC(C)=O)[C@@H](NC(=N)N)C1
Ans: 1.35

Q: Find the measured Drug metabolism of Br.CCOC(=O)C1=C[C@@H](OC(CC)CC)[C@H](NC(C)=O)[C@@H](NC(C)=N)C1 and report it.
Ans: 0.83

* * *

Assay: Oral bioavailability in fed mouse at 10 mg/kg by LC-MS/MS analysis
Type: ADME, organism-based
Conditions: in vivo
measurement.type: bioavailability (%)
Could you give me the number in %? Just the number is fine.

Q: State its bioavailability for this compound: CCC(CC)O[C@@H]1C=C(C(=O)O)C[C@H](NC(=N)N)[C@H]1NC(C)=O
Ans: 23

* * *

Exercise: state measured Drug metabolism for each of the compounds provided.
Assay: Prodrug activation in human liver mitochondria assessed as formation of oseltamivir carboxylate per mg protein at 500 uM after 30 mins by HPLC analysis
Details: 0.5 h
Use nmol/min/mg as the unit, but write only the number.

Q: Give reported Drug metabolism value for Br.CCOC(=O)C1=C[C@@H](OC(CC)CC)[C@H](NC(C)=O)[C@@H](NC(C)=N)C1
Ans: 0.56

Q: # return recorded Drug metabolism for entry CCOC(=O)C1=C[C@@H](OC(CC)CC)[C@H](NC(C)=O)[C@@H](NC(=N)N)C1
Ans: 0.79

Q: Specify measured Drug metabolism for CCOC(=O)C1=C[C@@H](OC(CC)CC)[C@H](NC(C)=O)[C@@H](NC(N)=NO)C1 .
Ans: 1.74

Q: For CCOC(=O)C1=C[C@@H](OC(CC)CC)[C@H](NC(C)=O)[C@@H](N/C(C)=N/O)C1 , write its Drug metabolism.
Ans: 0.29

* * *

Target: Neuraminidase (Influenza A virus)
Sequence (B4URF0 whole entry): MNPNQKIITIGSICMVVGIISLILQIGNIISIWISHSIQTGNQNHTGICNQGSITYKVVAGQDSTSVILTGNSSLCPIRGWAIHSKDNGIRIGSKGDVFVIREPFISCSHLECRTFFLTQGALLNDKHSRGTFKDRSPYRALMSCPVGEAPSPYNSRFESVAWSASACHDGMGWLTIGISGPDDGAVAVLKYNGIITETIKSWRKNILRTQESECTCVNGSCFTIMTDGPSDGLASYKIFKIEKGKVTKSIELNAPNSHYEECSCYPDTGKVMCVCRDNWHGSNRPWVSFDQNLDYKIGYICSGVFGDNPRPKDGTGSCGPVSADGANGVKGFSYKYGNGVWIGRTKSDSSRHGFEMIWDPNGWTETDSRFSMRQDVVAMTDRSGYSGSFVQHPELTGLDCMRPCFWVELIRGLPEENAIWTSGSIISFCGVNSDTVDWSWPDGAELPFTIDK
Design: species or system A/Rheinland-Pfalz/3911/03(H3N2)
measurement.type: pIC50
Note on units: pIC50 is unitless, being -log10 of a concentration expressed in mol/L.

Q: GET pIC50 where system = Neuraminidase (Influenza A virus) and item = CCC(CC)O[C@@H]1C=C(C(=O)O)C[C@H](NC(C)=N)[C@H]1NC(C)=O
Ans: 8.75

* * *

Test: in vivo
Details: Sprague-Dawley, rat, po, 50 mg/kg
Description: Half life in Sprague-Dawley rat at 50 mg/kg, po by LC-MS/MS analysis
Everything with half-life lower than 1 h is condition not met; everything else, including exactly 1 h, is condition met.

Q: Form field: half-life at least 1 h? Entry: CCOC(=O)C1=C[C@@H](OC(CC)CC)[C@H](NC(C)=O)[C@@H](NC(=N)N)C1
Ans: condition met

Q: # bool: half-life of CCOC(=O)C1=C[C@@H](OC(CC)CC)[C@H](NC(C)=O)[C@@H](N/C(C)=N/O)C1 >= 1 h
Ans: condition met

Q: State whether the measured half-life reaches 1 h, counting equality as reaching it, for Br.CCOC(=O)C1=C[C@@H](OC(CC)CC)[C@H](NC(C)=O)[C@@H](NC(C)=N)C1
Ans: condition not met

Q: State whether the measured half-life reaches 1 h, counting equality as reaching it, for CCC(CC)O[C@@H]1C=C(C(=O)O)C[C@H](NC(C)=N)[C@H]1NC(C)=O
Ans: condition met

Q: Does the molecule CCOC(=O)C1=C[C@@H](OC(CC)CC)[C@H](NC(C)=O)[C@@H](NC(N)=NO)C1 have recorded half-life that is 1 h or more?
Ans: condition met

Q: Does CCC(CC)O[C@@H]1C=C(C(=O)O)C[C@H](NC(=N)N)[C@H]1NC(C)=O have a reported half-life of at least 1 h?
Ans: condition met

* * *

Hi there, I'd appreciate the recorded solubility at 20 min for every entry that follows.
Test: Solubility of the compound in phosphate buffer saline at pH 7.4 after 20 mins by HPLC analysis
Assay type: physicochemical

Q: Return solubility at 20 min for the following molecule: CCOC(=O)C1=C[C@@H](OC(CC)CC)[C@H](NC(C)=O)[C@@H](NC(=N)N)C1
Ans: > 50 mM

Q: Query solubility at 20 min for CCC(CC)O[C@@H]1C=C(C(=O)O)C[C@H](NC(C)=N)[C@H]1NC(C)=O
Ans: > 50 mM

Q: Read the entry Br.CCOC(=O)C1=C[C@@H](OC(CC)CC)[C@H](NC(C)=O)[C@@H](NC(C)=N)C1 and write its reported solubility at 20 min.
Ans: > 50 mM

Q: Item CCOC(=O)C1=C[C@@H](OC(CC)CC)[C@H](NC(C)=O)[C@@H](N/C(C)=N/O)C1 : provide solubility at 20 min
Ans: 23 mM

Q: Check the records and state solubility at 20 min for CCOC(=O)C1=C[C@@H](OC(CC)CC)[C@H](NC(C)=O)[C@@H](NC(N)=NO)C1
Ans: > 50 mM

* * *

Would you mind telling me the reported Drug metabolism of each entry?
Test system: Liver microsome
Test: Prodrug activation in human liver microsomes assessed as formation of oseltamivir carboxylate per mg protein at 500 uM after 30 mins by HPLC analysis
Details: 0.5 h
The reply should be a number in nmol/min/mg, with the unit left off.

Q: Lab note: record Drug metabolism of CCOC(=O)C1=C[C@@H](OC(CC)CC)[C@H](NC(C)=O)[C@@H](NC(=N)N)C1 tested on Liver microsome.
Ans: 1.06

Q: Provide measured Drug metabolism on Liver microsome for CCOC(=O)C1=C[C@@H](OC(CC)CC)[C@H](NC(C)=O)[C@@H](N/C(C)=N/O)C1 please.
Ans: 2.3

Q: Write Drug metabolism of Br.CCOC(=O)C1=C[C@@H](OC(CC)CC)[C@H](NC(C)=O)[C@@H](NC(C)=N)C1 ; system used: Liver microsome
Ans: 0.64

Q: Look up and report measured Drug metabolism (Liver microsome) for the following compound: CCOC(=O)C1=C[C@@H](OC(CC)CC)[C@H](NC(C)=O)[C@@H](NC(N)=NO)C1
Ans: 1.76

* * *

Experiment: in vivo
Conditions: Sprague-Dawley, rat, po, 50 mg/kg
So I've got a bunch of compounds here, and I need their bioavailability values.
Number in %, nothing else.

Q: Report measured bioavailability; entry is CCC(CC)O[C@@H]1C=C(C(=O)O)C[C@H](NC(C)=N)[C@H]1NC(C)=O
Ans: 3.9

Q: Give a short answer stating reported bioavailability for CCOC(=O)C1=C[C@@H](OC(CC)CC)[C@H](NC(C)=O)[C@@H](NC(N)=NO)C1 .
Ans: 1.5

Q: Please list bioavailability recorded for the compound Br.CCOC(=O)C1=C[C@@H](OC(CC)CC)[C@H](NC(C)=O)[C@@H](NC(C)=N)C1
Ans: 0.8

Q: Could you please provide reported bioavailability for CCOC(=O)C1=C[C@@H](OC(CC)CC)[C@H](NC(C)=O)[C@@H](N/C(C)=N/O)C1 ? Thanks!
Ans: 31.4

Q: // Input: CCOC(=O)C1=C[C@@H](OC(CC)CC)[C@H](NC(C)=O)[C@@H](NC(=N)N)C1 . Output its bioavailability only.
Ans: 1.3

Q: # return recorded bioavailability for input CCC(CC)O[C@@H]1C=C(C(=O)O)C[C@H](NC(=N)N)[C@H]1NC(C)=O
Ans: 1.9
